Cited source for all entries: patent US20090060916A1

- system.tested: T1, human IL-13 (human, UniProt P35225 35-146, biotinylated on the Biacore chip)
- T1 construct: also called hIL-13; recombinant human IL-13
- assay.details: Dom10 RBA (IL-13 sandwich ELISA per paragraph 471)
Measured pEC50 values are reported for all entries that follow.
// field semantics: pEC50 = negative decimal log of concentration (mol/L)

Request: Request the reported pEC50 associated with DOM10-270-TVAAPS-DOM9-155-78 (bispecific antibody, in-line fusion, from pDOM5) DIQMTQSPSSLSASVGDRVTITCRASSVILNELHWYQQKPGKAPKLLISAVSRLQSGVPSRFSGSGSGTDFTLTISSLQPEDFATYYCLQTFWGPYTFGQGTKVEIKRTVAAPSDIQMTQSPSSLSASVGDRVTITCRASRHIGDWLHWYQQKPGKAPKLLIAWASTLDSGVPSRFSGSGSGTDFTLTISSLQPEDFATYYCLQEGWGPPTFGQGTKVEIKR
Result: 7.43
